- Experiment: DAF-2 assay of NO scavenging activity without and with H2O2 (ROS)
- Format: biochemical
- Test settings: compound 1 µM; SNAP 100 µM, DAF-2 10 µM, 3 hours, 37°C
Recorded NO Scavenging Activity (%) (Mean±SD) Without H2O2 values for a group of molecules are listed next.
Measured attribute: NO Scavenging Activity (%) (Mean±SD) Without H2O2

{"Input smiles": "C[C@@H]1CCN(C(=O)CC#N)C[C@@H]1N(C)c1ncnc2c1ccn2C(=O)Nc1cc2c(cc1NC(=O)OCc1ccc(B3OC(C)(C)C(C)(C)O3)cc1)n(C)c(=O)n2C", "Val": 3.73}
{"Input smiles": "C[C@@H]1CCN(C(=O)CC#N)C[C@@H]1N(C)c1ncnc2c1ccn2C(=O)N(C)CCN(C)C(=O)Nc1cc(N(C)C)ccc1NC(=O)OCc1ccc(B(O)O)cc1", "Val": 21.08}
{"Input smiles": "CC[C@@H]1CN(C(=O)NCC(F)(F)F)C[C@@H]1c1cnc2cnc3c(ccn3C(=O)Nc3cc4c(cc3NC(=O)OCc3ccc(B(O)O)cc3)n(C)c(=O)n4C)n12", "Val": 6.42}
{"Input smiles": "C[C@@H]1CCN(C(=O)CC#N)C[C@@H]1N(C)c1ncnc2c1ccn2C(=O)N(C)CCN(C)C(=O)Nc1cc2c(cc1NC(=O)OCc1ccc(B(O)O)cc1)n(C)c(=O)n2C", "Val": 16.43}
